Hi there, I'd appreciate the recorded EC50 for every entry that follows.
Biological target: Neuronal acetylcholine receptor subunit alpha-7 (Homo sapiens, UniProt P36544)
Sequence (P36544 whole entry): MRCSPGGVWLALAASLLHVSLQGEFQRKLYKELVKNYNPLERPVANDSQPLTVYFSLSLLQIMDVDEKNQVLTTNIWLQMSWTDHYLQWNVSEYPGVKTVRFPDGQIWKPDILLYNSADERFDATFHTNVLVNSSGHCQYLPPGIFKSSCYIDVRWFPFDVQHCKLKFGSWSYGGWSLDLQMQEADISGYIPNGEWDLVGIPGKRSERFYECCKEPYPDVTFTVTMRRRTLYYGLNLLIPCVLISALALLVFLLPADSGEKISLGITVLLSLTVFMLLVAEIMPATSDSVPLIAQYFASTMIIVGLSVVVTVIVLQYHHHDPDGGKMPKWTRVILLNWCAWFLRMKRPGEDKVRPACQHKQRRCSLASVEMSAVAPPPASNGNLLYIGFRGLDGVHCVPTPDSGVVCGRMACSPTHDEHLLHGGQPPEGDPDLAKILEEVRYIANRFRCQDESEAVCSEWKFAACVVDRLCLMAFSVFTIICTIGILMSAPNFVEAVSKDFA
Assay: Agonist activity at human recombinant alpha7 nAChR expressed in rat GH3 cells by calcium influx assay

**Q:** Sample COc1ccc([C@@H]2C[C@H](CN3CCCCC3)C(=O)N2C)cc1 (relative stereo) — what was its EC50?
**A:** 1260 nM

**Q:** Further, for CN1C(=O)[C@@H](CN2CCCCC2)C[C@H]1C#Cc1ccc2occc2c1 (relative stereo) ?
**A:** 7.94 nM

**Q:** Same thing, different compound: CN1C(=O)[C@@H](CN2CCCCC2)C[C@H]1c1ccccc1Cl
**A:** 794 nM

Reference source for all entries: ChEMBL document CHEMBL1153277
